pIC50: −log10 of the molar value.
Let's go through some recorded pIC50 values for PDE V (Homo sapiens, UniProt O76074) together.

{"compound": "CCn1c(=O)c2c(nc(NC3CCOCC3)n2Cc2ccc(S(N)(=O)=O)c(Br)c2)n(CC)c1=O [Compound 190]", "pIC50": "8.00 to 8.30"}
{"compound": "CCn1c(=O)c2c(nc(NC3CCCCC3)n2Cc2ccccc2)n(CC)c1=O [Compound 29]", "pIC50": "7.82 to 8.00"}

Fill blank: measured pIC50 of the compound CCn1c(=O)[nH]c2nc(NC3CCCC3)n(Cc3ccc(O)cc3)c2c1=O [Compound 95] is ____.
8.00 to 8.30

Fill blank: measured pIC50 of the compound COc1ccc(Cn2c(N[C@@H]3CCC[C@@H]3O)nc3c2c(=O)n(C)c(=O)n3CC(C)C)cc1 [Compound 17] is ____.
7.00 to 7.82

Fill blank: measured pIC50 of the compound COc1ccc(Cn2c(=O)c3c(nc(NC4CCCC4)n3Cc3ccc(OC)cc3)n(C)c2=O)cc1 [Compound 22] is ____.
8.00 to 8.30

Fill blank: measured pIC50 of the compound CCn1c(=O)c2c(nc(N[C@H]3CC[C@H](O)CC3)n2Cc2ccc(OC)c(Br)c2)n(CC)c1=O [Compound 125] is ____.
7.82 to 8.00

Fill blank: measured pIC50 of the compound CCn1c(=O)c2c(nc(NC3CCCCC3)n2Cc2ccc(OC)cc2)n(CC)c1=O [Compound 61] is ____.
≥ 8.30

Fill blank: measured pIC50 of the compound CCn1c(=O)c2c(nc(NC3CCSCC3)n2Cc2ccc(OC)c(Br)c2)n(CC)c1=O [Compound 198] is ____.
≥ 8.30

Fill blank: measured pIC50 of the compound CCn1c(=O)c2c(nc(NC3CCCCC3)n2Cc2ccc(O)cc2)n(CC(C)C)c1=O [Compound 65] is ____.
≥ 8.30

Fill blank: measured pIC50 of the compound CCCn1c(=O)n(CC)c(=O)c2c1nc(NC1CCCCC1)n2Cc1ccc2c(c1)OCO2 [Compound 175] is ____.
8.00 to 8.30

Fill blank: measured pIC50 of the compound CCCn1c(=O)n(CC)c(=O)c2c1nc(NC1CCCCC1)n2Cc1ccccc1F [Compound 173] is ____.
7.00 to 7.82

Fill blank: measured pIC50 of the compound Cn1c(=O)c2c(nc(NC3CCCCC3)n2Cc2ccc3c(c2)OCO3)n(C)c1=O [Compound 142] is ____.
≥ 8.30

Fill blank: measured pIC50 of the compound CCn1c(=O)[nH]c2nc(NC3CCCCC3)n(Cc3ccc(O)cc3)c2c1=O [Compound 94] is ____.
7.82 to 8.00

Fill blank: measured pIC50 of the compound CCn1c(=O)c2c(nc(NC3CCSCC3)n2Cc2ccc(OC)c(Cl)c2)n(CC)c1=O [Compound 197] is ____.
≥ 8.30

Fill blank: measured pIC50 of the compound COc1ccc(Cn2c(NC3CCCCC3)nc3c2c(=O)n(C)c(=O)n3CC(C)C)cc1 [Compound 31] is ____.
7.00 to 7.82

Fill blank: measured pIC50 of the compound CCn1c(=O)c2c(nc(NC3CCCCC3)n2Cc2ccc(S(N)(=O)=O)c(Cl)c2)n(CC)c1=O [Compound 179] is ____.
≥ 8.30

Fill blank: measured pIC50 of the compound CCn1c(=O)c2c(nc(NC3CCCC3)n2Cc2ccccc2)n(CC(C)C)c1=O [Compound 55] is ____.
7.00 to 7.82

Fill blank: measured pIC50 of the compound CCn1c(=O)c2c(nc(NC3CCCCC3)n2Cc2ccc(OC)cc2)n(CC(C)C)c1=O [Compound 39] is ____.
7.82 to 8.00

====

biological target: PDE V (Homo sapiens, UniProt O76074)
pIC50: −log10 of the molar value.
measured attribute: pIC50

Examples with their reported pIC50 follow.
{"cpd smiles": "Cn1c(=O)[nH]c(=O)c2c1nc(NC1CCCCC1)n2Cc1ccc(O)cc1", "system name": "PDE V (Homo sapiens, UniProt O76074)", "readout value": "7.00 to 7.82"}
{"cpd smiles": "Cn1c(=O)[nH]c(=O)c2c1nc(NC1CCCC1)n2Cc1ccc(O)cc1", "system name": "PDE V (Homo sapiens, UniProt O76074)", "readout value": "8.00 to 8.30"}
{"cpd smiles": "Cn1c(=O)c2c(nc(NC3CCCCCC3)n2Cc2ccc(O)cc2)n(C)c1=O", "system name": "PDE V (Homo sapiens, UniProt O76074)", "readout value": "7.00 to 7.82"}

// below: pIC50 requested for another molecule
Enter reported pIC50 observed with PDE V (Homo sapiens, UniProt O76074) for `CCCn1c(=O)n(CC)c(=O)c2c1nc(NC1CCCCC1)n2Cc1ccc(OC)c(C)c1`
7.00 to 7.82

====

Let's go through some recorded IC50 values for PDE V (Homo sapiens) together.

Examples with their reported IC50 follow.
{"compound": "Cc1ccc(Cn2c(NC3CCCCC3)nc3c2c(=O)n(C)c(=O)n3C)cc1 [Compound 132]", "system name": "PDE V (Homo sapiens)", "measured attribute": "IC50", "readout value": "5 to 10 nM"}
{"compound": "CCn1c(=O)c2c(nc(NC3CCS(=O)(=O)CC3)n2Cc2ccc(OC)c(Br)c2)n(CC)c1=O [Compound 194]", "system name": "PDE V (Homo sapiens)", "measured attribute": "IC50", "readout value": "15 to 100 nM"}
{"compound": "CCn1c(=O)c2c(nc(NC3(CO)CCCC3)n2Cc2ccc(OC)cc2)n(CC(C)C)c1=O [Compound 41]", "system name": "PDE V (Homo sapiens)", "measured attribute": "IC50", "readout value": "15 to 100 nM"}
{"compound": "COc1ccc(Cn2c(NC3CCCCCC3)nc3c2c(=O)n(C)c(=O)n3C)cc1 [Compound 43]", "system name": "PDE V (Homo sapiens)", "measured attribute": "IC50", "readout value": "15 to 100 nM"}

Enter reported IC50 observed with PDE V (Homo sapiens) for CCn1c(=O)c2c(nc(NC3CCOCC3)n2Cc2ccc(S(N)(=O)=O)c(Cl)c2)n(CC)c1=O [Compound 191]
≤ 5 nM

Enter reported IC50 observed with PDE V (Homo sapiens) for CCn1c(=O)c2c(nc(NC3CCCCC3)n2Cc2ccccc2)n(CCO)c1=O [Compound 101]
15 to 100 nM

Enter reported IC50 observed with PDE V (Homo sapiens) for COc1ccc(Cn2c(NC3CCCCC3)nc3c2c(=O)[nH]c(=O)n3C)cc1 [Compound 70]
15 to 100 nM

Enter reported IC50 observed with PDE V (Homo sapiens) for CCn1c(=O)c2c(nc(NC3CCC(F)(F)CC3)n2Cc2ccc(OC)c(Br)c2)n(CC)c1=O [Compound 199]
5 to 10 nM

====

Let's go through some recorded IC50 values for PDE V (Homo sapiens, UniProt O76074) together.

Examples with their reported IC50 follow.
{"compound": "CCn1c(=O)c2c(nc(NC3CCCCC3)n2Cc2cc3c(cc2Cl)OCO3)n(CCO)c1=O", "readout value": "10 to 15 nM"}
{"compound": "CCn1c(=O)c2c(nc(NC3CCCCC3)n2Cc2ccc(OC)c(C)c2)n(CCO)c1=O", "readout value": "5 to 10 nM"}
{"compound": "CCn1c(=O)c2c(nc(NC3(CO)CC=CC3)n2Cc2ccc(OC)cc2)n(CC)c1=O", "readout value": "≤ 5 nM"}
{"compound": "COc1ccc(Cn2c(NC3(CO)CCCC3)nc3c2c(=O)n(C)c(=O)n3C)cc1", "readout value": "15 to 100 nM"}
{"compound": "Cc1cccc(Cn2c(NC3CCCCC3)nc3c2c(=O)n(C)c(=O)n3C)c1", "readout value": "15 to 100 nM"}
{"compound": "COc1ccc(Cn2c(N[C@@H]3CCc4ccccc43)nc3c2c(=O)n(C)c(=O)n3C)cc1", "readout value": "15 to 100 nM"}
{"compound": "CCn1c(=O)c2c(nc(NC3CCCC3O)n2Cc2ccc(OC)cc2)n(CC(C)C)c1=O (stereo not shown)", "readout value": "10 to 15 nM"}
{"compound": "CCn1c(=O)c2c(nc(N[C@@H]3CCC[C@H]3O)n2Cc2cc(Br)c3c(c2)CCO3)n(CCO)c1=O", "readout value": "15 to 100 nM"}

Enter reported IC50 observed with PDE V (Homo sapiens, UniProt O76074) for `CCn1c(=O)c2c(nc(NC3CCCCC3)n2Cc2ccc(S(N)(=O)=O)c(Cl)c2)n(CCO)c1=O`
5 to 10 nM

Enter reported IC50 observed with PDE V (Homo sapiens, UniProt O76074) for `COc1ccc(Cn2c(NC3CCCCC3)nc3c2c(=O)n(C)c(=O)n3C)cc1`
10 to 15 nM

Enter reported IC50 observed with PDE V (Homo sapiens, UniProt O76074) for `Cn1c(=O)c2c(nc(NC3CCCCC3)n2Cc2ccc(O)c(Cl)c2)n(C)c1=O`
10 to 15 nM

Enter reported IC50 observed with PDE V (Homo sapiens, UniProt O76074) for `CCn1c(=O)c2c(nc(NC3CCCCC3)n2Cc2ccc(OC)cc2)n(C)c1=O`
10 to 15 nM

Enter reported IC50 observed with PDE V (Homo sapiens, UniProt O76074) for `Cn1c(=O)c2c(nc(NC3CCCC3)n2Cc2ccc(O)cc2)n(C)c1=O`
5 to 10 nM
